Where do these numbers come from? They come from patent US20040018971A1.

# measurement-target: HLA-A*1101 (human)
# assay-text: inhibition of 125I-labelled probe peptide binding to purified HLA-A*1101, gel filtration
Entries and their relative binding ratio (IC50 of standard peptide / IC50 of test peptide) values follow.
Express the result in relative binding ratio but write the number alone.

IN: Report relative binding ratio (IC50 of standard peptide / IC50 of test peptide) for GLACHQLCAR [HER2/neu peptide, position 508, 10 amino acids] please.
OUT: 0.0001

IN: What do we get for GMEHLREVR [HER2/neu peptide, position 346, 9 amino acids] ?
OUT: -0.0002

IN: What do we get for GSGAFGTVY [HER2/neu peptide, position 727, 9 amino acids] ?
OUT: 0.0001

IN: What do we get for GLGISWLGLR [HER2/neu peptide, position 447, 10 amino acids] ?
OUT: 0.0001

More entries:
IN: Report relative binding ratio (IC50 of standard peptide / IC50 of test peptide) for ETLEEITGY [HER2/neu peptide, position 401, 9 amino acids] please.
OUT: 0.0002

IN: What do we get for GAMPNQAQMR [HER2/neu peptide, position 704, 10 amino acids] ?
OUT: 0.0041

IN: What do we get for ELMTFGAKPY [HER2/neu peptide, position 914, 10 amino acids] ?
OUT: 0.0002

IN: What do we get for GAGGMVHHR [HER2/neu peptide, position 1038, 9 amino acids] ?
OUT: 0.0043

IN: What do we get for GSGAFGTVYK [HER2/neu peptide, position 727, 10 amino acids] ?
OUT: 0.13

IN: What do we get for ELHCPALVTY [HER2/neu peptide, position 265, 10 amino acids] ?
OUT: 0.0002

IN: What do we get for HADGGKVPIK [HER2/neu peptide, position 878, 10 amino acids] ?
OUT: 0.0008

IN: What do we get for GVVFGILIK (T0001 prints T at residue 673) [HER2/neu peptide, position 668, 9 amino acids] ?
OUT: 0.089

IN: What do we get for GLPREYVNAR [HER2/neu peptide, position 549, 10 amino acids] ?
OUT: 0.0003

IN: What do we get for FSRMARDPQR [HER2/neu peptide, position 976, 10 amino acids] ?
OUT: 0.001

IN: What do we get for EVTAEDGTQR [HER2/neu peptide, position 321, 10 amino acids] ?
OUT: 0.0001

IN: What do we get for GASCVTACPY [HER2/neu peptide, position 292, 10 amino acids] ?
OUT: 0.0001
